experimental-target: MDM2 (Homo sapiens)
Sequence (Q00987 1-125): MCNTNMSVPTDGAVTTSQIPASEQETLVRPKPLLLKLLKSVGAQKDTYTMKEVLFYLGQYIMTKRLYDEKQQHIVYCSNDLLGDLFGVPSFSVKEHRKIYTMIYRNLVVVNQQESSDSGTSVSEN
experiment-notes: Competitive fluorescence polarization assay for MDM2
Type: binding
experimental-conditions: competitive FP assay, MDM2; read-out: IC50 (MDM2)
Where a SMILES comes first, the peptide text is derived from it. Bridges are numbered along the chain shown (N, C = ends). [ ]: non-standard residue; d: D form. R8 = C=CCCCCCC[C@@](C)(N)C(=O)O; Cba = N[C@@H](CC1CCC1)C(=O)O; S5 = C=CCCC[C@](C)(N)C(=O)O

compound: CC(=O)N[C@@H](CC(C)C)C(=O)N[C@H](C(=O)N[C@@H](Cc1ccccc1)C(=O)N[C@]1(C)CCCCCCC=CCCC[C@@](C)(C(=O)N[C@@H](CO)C(=O)NC(C)(C)C(=O)N[C@@H](C)C(=O)N[C@@H](C)C(N)=O)NC(=O)[C@H](CC(C)C)NC(=O)[C@H](CCC(N)=O)NC(=O)[C@H](C)NC(=O)[C@H](Cc2c[nH]c3ccccc23)NC(=O)[C@H](Cc2ccc(O)cc2)NC(=O)[C@H](C)NC1=O)[C@@H](C)O (single isomer, unassigned) [compound 26]
IC50: 10 to 100 nM
--
compound: CC[C@H](C)[C@H](NC(=O)[C@H](C)NC(=O)[C@H](C)NC(=O)[C@]1(C)CCCC=CCCCCCC[C@@](C)(NC(=O)[C@H](Cc2ccccc2)NC(=O)[C@@H](NC(=O)[C@H](CC(C)C)NC(C)=O)[C@@H](C)O)C(=O)N[C@@H](CCC(=O)O)C(=O)N[C@@H](Cc2ccc(O)cc2)C(=O)N[C@@H](Cc2c[nH]c3ccccc23)C(=O)N[C@@H](C)C(=O)N[C@@H](CCC(N)=O)C(=O)N[C@@H](CC2CCC2)C(=O)N1)C(=O)N[C@H](C)C(N)=O [compound 247] (Ac-LTF[R8]EYWAQ[Cba][S5]AAI[dA]-NH2; staple 4-11)
IC50: 10 to 100 nM
--
compound: CC(=O)N[C@@H](CC(C)C)C(=O)N[C@H](C(=O)N[C@@H](Cc1ccccc1)C(=O)N[C@]1(C)CCCCCCC=CCCC[C@@](C)(C(=O)N[C@@H](CO)C(=O)N[C@@H](C)C(=O)N[C@@H](CO)C(N)=O)NC(=O)[C@H](CC(C)C)NC(=O)[C@H](CCC(N)=O)NC(=O)[C@H](C)NC(=O)[C@H](Cc2c[nH]c3ccccc23)NC(=O)[C@H](Cc2ccc(O)cc2)NC(=O)[C@H](C)NC1=O)[C@@H](C)O [compound 122] (Ac-LTF[R8]AYWAQL[S5]SAS-NH2; staple 4-11)
IC50: < 10 nM
--
compound: CCCC[C@H](NC(=O)[C@H](C)NC(=O)[C@H](C)NC(=O)[C@]1(C)CCCC=CCCCCCC[C@@](C)(NC(=O)[C@H](Cc2ccccc2)NC(=O)[C@@H](NC(=O)[C@H](CC(C)C)NC(C)=O)[C@@H](C)O)C(=O)N[C@@H](C)C(=O)N[C@@H](Cc2ccc(O)cc2)C(=O)N[C@@H](Cc2c[nH]c3ccccc23)C(=O)N[C@@H](C)C(=O)N[C@@H](CCC(N)=O)C(=O)N[C@@H](CC(C)C)C(=O)N1)C(=O)N[C@@H](C)C(=O)N[C@H](C)C(N)=O (single isomer, unassigned) [compound 408]
IC50: 10 to 100 nM
